Where do these numbers come from? They come from ChEMBL document CHEMBL2074151.

target: Solute carrier organic anion transporter family member 2B1 (Rattus norvegicus, UniProt Q9JHI3)
Sequence (Q9JHI3 whole entry): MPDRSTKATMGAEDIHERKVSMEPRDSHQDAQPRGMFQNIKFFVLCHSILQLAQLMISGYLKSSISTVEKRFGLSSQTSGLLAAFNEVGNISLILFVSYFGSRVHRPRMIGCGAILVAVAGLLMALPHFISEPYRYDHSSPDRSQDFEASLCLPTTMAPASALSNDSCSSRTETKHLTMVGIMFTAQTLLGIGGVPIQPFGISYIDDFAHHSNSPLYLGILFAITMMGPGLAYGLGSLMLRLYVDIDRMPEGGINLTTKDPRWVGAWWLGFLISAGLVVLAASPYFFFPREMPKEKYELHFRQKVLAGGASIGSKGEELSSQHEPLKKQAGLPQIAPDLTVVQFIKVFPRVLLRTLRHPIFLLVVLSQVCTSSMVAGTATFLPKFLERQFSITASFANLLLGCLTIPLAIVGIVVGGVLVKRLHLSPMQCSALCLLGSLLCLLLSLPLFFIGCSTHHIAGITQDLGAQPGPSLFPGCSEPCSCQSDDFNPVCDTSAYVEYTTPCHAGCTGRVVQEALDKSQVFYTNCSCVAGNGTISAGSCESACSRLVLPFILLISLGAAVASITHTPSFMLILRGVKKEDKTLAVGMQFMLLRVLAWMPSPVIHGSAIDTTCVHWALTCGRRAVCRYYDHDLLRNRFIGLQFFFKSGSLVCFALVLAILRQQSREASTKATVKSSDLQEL
assay-notes: TP_TRANSPORTER: inhibition of PGD2 uptake in Xenopus laevis oocytes
Catalogue of compounds with associated pIC50
Friendly reminder that pIC50 comes from taking -log10 of the concentration in mol/L.

{"columns": ["compound", "value-measured"],
 "data": [
  ["CCCCC[C@H](O)/C=C/[C@@H]1[C@@H](C/C=C\\CCCC(=O)O)[C@@H](O)C[C@H]1O [DINOPROST]", 6.54]
]}

Consider now this further compound.
Entry CCCCC[C@H](O)/C=C/[C@H]1[C@H](O)CC(=O)[C@@H]1CCCCCCC(=O)O [ALPROSTADIL] : reported pIC50 = ?
7.45
